I'd appreciate it if you could supply t½ values for the items below.
- TARGET UNDER TEST: SARS-COV-2 RBD extracellular domain expressed with a C-terminal myc-myc-hexahistidine tag (SARS-COV-2 RBD-mmH) (SARS-CoV-2)
- EXPERIMENT DESCRIPTION: SPR Biacore, mAb captured on anti-hFc, RBD-mmH analyte, 37 C
One number for each entry, in s.

1. mAb14232 (antibody, V domains shown) VH: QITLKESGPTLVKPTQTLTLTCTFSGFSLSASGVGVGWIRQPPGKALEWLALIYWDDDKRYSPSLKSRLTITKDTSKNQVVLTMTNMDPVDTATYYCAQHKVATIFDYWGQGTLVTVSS VL: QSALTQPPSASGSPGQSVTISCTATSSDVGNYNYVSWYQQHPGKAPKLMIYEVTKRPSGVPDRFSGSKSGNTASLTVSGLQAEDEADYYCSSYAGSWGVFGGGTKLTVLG	18

Now turn to the next binder.
t½ reading for mAb14234 (antibody, V domains shown) VH: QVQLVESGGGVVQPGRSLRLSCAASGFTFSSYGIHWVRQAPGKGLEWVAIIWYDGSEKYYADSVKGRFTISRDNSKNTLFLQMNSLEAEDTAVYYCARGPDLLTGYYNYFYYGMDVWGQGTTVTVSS VL: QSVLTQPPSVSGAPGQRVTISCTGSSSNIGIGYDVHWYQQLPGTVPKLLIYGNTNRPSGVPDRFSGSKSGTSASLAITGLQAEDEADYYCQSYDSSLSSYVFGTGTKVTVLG : 60
